Where do these numbers come from? They come from patent US20100210682A1.

- Test system: MIA-induced osteoarthritic rats
- Run description: Osteoarthritic pain model in rats (MIA), hind limb grip force
- Format: in vivo, rat
- Study conditions: grip force, BID 12 days, reduced dose
Measured attribute: analgesic effects following repeated dosing vs acute dosing

Compound structure: CC(C)(C)c1ccc2c(c1)CC[C@H]2NC(=O)Nc1cccc2[nH]ncc12
System: MIA-induced osteoarthritic rats
Test value: significantly increased

Compound structure: Cc1nc(Nc2cccc3c2C[C@H](O)CC3)oc1-c1ccc(C(F)(F)F)cc1
System: MIA-induced osteoarthritic rats
Test value: significantly increased

Compound structure: C[C@@H]1CN(c2ncccc2Cl)CC=C1C(=O)Nc1ccc(C(F)(F)F)cc1
System: MIA-induced osteoarthritic rats
Test value: significantly increased

Compound structure: CCC1(CC)C[C@@H](NC(=O)Nc2cccc3cnc(C)cc23)c2cc(F)ccc2O1
System: MIA-induced osteoarthritic rats
Test value: significantly increased
